I'd be grateful if you could share measured Inhibition for these entries.
Test system: Plasmodium falciparum
Assay: GSK_TCMDC: Inhibition of Plasmodium falciparum Dd2 in whole red blood cells, using parasite LDH activity as an index of growth. Test compounds present at 2uM
Type: functional
Write down the numeric answer in % and omit the unit.

Q: // fetch Plasmodium falciparum Inhibition for `CCc1c[nH]c2c(N3CCCS3(=O)=O)cc(C(=O)N[C@@H](Cc3ccccc3)[C@H](O)CNC(C)(C)CCCC(C)C)cc12`
Ans: 98

Q: Lookup: Inhibition / Plasmodium falciparum / `CC(C)CCn1c(Sc2ccc(C#N)c([N+](=O)[O-])c2)nnc1-c1ccc(N(C)C)cc1`
Ans: 96

Q: Test system Plasmodium falciparum; read-out Inhibition; what value for `CCCc1cc(NC2CCN(C)CC2)nc(Nc2ccc(C)cc2)n1` ?
Ans: 20

Q: Missing value: Inhibition, Plasmodium falciparum, entry `COc1ccc(-c2cncc3ccc(C(=O)NCCCn4ccnc4)nc23)cc1` . Fill in?
Ans: 99

Q: Could you share what Inhibition was measured for `CCn1c(-c2nonc2N)nc2c(Cl)ncc(O[C@H](CCN)c3ccccc3F)c21.Cl` , tested on Plasmodium falciparum?
Ans: 88
